Reference for the values: BigSolDB 2.1

conditions: in n-pentyl acetate, 293.1 K
readout: solubility (mole fraction)
// keep it numeric: no unit symbol after the value

INPUT: Find the recorded solubility (mole fraction) belonging to CC(=O)Oc1cc(C)c(OC(C)=O)c2ccccc12 and report it.
OUTPUT: 0.0592

====

conditions: in methanol, 323.1 K
readout: solubility (mole fraction)
// keep it numeric: no unit symbol after the value

INPUT: Find the recorded solubility (mole fraction) belonging to CC(=O)Oc1cc(C)c(OC(C)=O)c2ccccc12 and report it.
OUTPUT: 0.032

====

conditions: in isobutanol, 303.1 K
readout: solubility (mole fraction)
// keep it numeric: no unit symbol after the value

INPUT: Find the recorded solubility (mole fraction) belonging to CC(=O)Oc1cc(C)c(OC(C)=O)c2ccccc12 and report it.
OUTPUT: 0.00708
